Tested on: 855422-203-R-J1-PDC complex spheroids, viability;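 also: spheroids exposed to drugs for seven days before readout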
Test: Anticancer human tumor 855422-203-R-J1-PDC patient-derived bladder carcinoma cell line growth inhibition [CLK]; active = viability on the fitted dose curve at most 10% of control; inactive = the rest
Conditions: second compound 0.0316 µM; first compound 0.00949 µM
Outcomes: active, inactive

{"columns": ["molecule", "group"],
 "data": [
  ["CC(C)CC(NC(=O)C(Cc1ccccc1)NC(=O)c1cnccn1)B(O)O (stereo unspecified) + CNC(=O)c1ccc(Nc2nc(OC3CCCC3)c3c(-c4ccc5nc(C)oc5c4)c[nH]c3n2)c(OC)c1", "active"],
  ["NC(=O)C(=Cn1cnc(-c2cc(C(F)(F)F)cc(C(F)(F)F)c2)n1)c1cncnc1 + CNC(=O)c1ccc(Nc2nc(OC3CCCC3)c3c(-c4ccc5nc(C)oc5c4)c[nH]c3n2)c(OC)c1", "inactive"],
  ["C=CC(=O)Nc1cc(Nc2nccc(-c3cn(C)c4ccccc34)n2)c(OC)cc1N(C)CCN(C)C + CN1CCN(c2cc(C(=O)Nc3cc4cc(-c5cnn(C)c5)ccc4cn3)ccn2)CC1", "inactive"],
  ["C=CC(=O)Nc1cc(Nc2nccc(-c3cn(C)c4ccccc34)n2)c(OC)cc1N(C)CCN(C)C + CNC(=O)c1ccc(Nc2nc(OC3CCCC3)c3c(-c4ccc5nc(C)oc5c4)c[nH]c3n2)c(OC)c1", "inactive"],
  ["CC(C)CC(NC(=O)C(Cc1ccccc1)NC(=O)c1cnccn1)B(O)O (stereo unspecified) + CN1CCN(c2cc(C(=O)Nc3cc4cc(-c5cnn(C)c5)ccc4cn3)ccn2)CC1", "active"],
  ["NC(=O)C(=Cn1cnc(-c2cc(C(F)(F)F)cc(C(F)(F)F)c2)n1)c1cncnc1 + CN1CCN(c2cc(C(=O)Nc3cc4cc(-c5cnn(C)c5)ccc4cn3)ccn2)CC1", "inactive"]
]}

Taken from PubChem BioAssay AID2060609.
